target: H81A (Homo sapiens, UniProt Q8WWM9, H81A); test: UV-Vis difference spectroscopy titration of ferric cytoglobin; type: binding; details: SD, n = 3
Sequence (Q8WWM9 whole entry H81A): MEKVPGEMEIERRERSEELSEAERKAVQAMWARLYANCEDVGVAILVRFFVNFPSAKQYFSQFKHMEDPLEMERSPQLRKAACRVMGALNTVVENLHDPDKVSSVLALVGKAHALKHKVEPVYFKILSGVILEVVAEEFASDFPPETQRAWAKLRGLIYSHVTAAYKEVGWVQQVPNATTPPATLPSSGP
quantity-kind: pKd
Entry type: numeric. Quantity: pKd, the -log10 of concentration in molar units.

Recorded pKd (compound CCCCCCCC(=O)O [Octanoic acid, octanoic acid, added as sodium octanoate] ): 2.82

* * *

molecular target: H81L (Homo sapiens, UniProt Q8WWM9, H81L); experiment: UV-Vis difference spectroscopy titration of ferric cytoglobin; format: binding; conditions: SD, n = 3
Sequence (Q8WWM9 whole entry H81L): as the sequence (Q8WWM9 whole entry H81A) above, with A81L counted along it
quantity-kind: pKd
# log scale: pKd equals minus log10 of the concentration in mol/L

# molecule CCCCCCCC(=O)O [Octanoic acid, octanoic acid, added as sodium octanoate] ; its pKd = 3.02
